System: HOP-62 multicell spheroids with HUVEC/MSC, viability
Assay: Anticancer human tumor HOP-62 cell line growth inhibition [KRAS2]
Conditions: second compound 1 µM; first compound 0.1 µM; active compounds read low
Excerpt: Multicellular complex tumor spheroid response to RAS pathway inhibitors in combination with a targeted agents in patient-derived cell lines with oncogenic KRAS variants from multiple cancer types A high-throughput screen of multi-cell type tumor spheroids was designed to identify active combinations of targeted small molecules and KRAS pathway inhibitors. […] Compounds. […] If the clinical Cmax for an agent had not been determined, the highest concentration tested was 10 microM. […]
// boundary case: viability, T/C equal to 30% maps to class 0; strictly smaller maps to class 1

Regarding Cn1ncnc1[C@H]1c2n[nH]c(=O)c3cc(F)cc(c23)N[C@@H]1c1ccc(F)cc1 + C=CC(=O)N1CCN(c2nc(OCC3CCCN3C)nc3c2CCN(c2cccc4cccc(C)c24)C3)CC1CC#N , kindly confirm whether its viability, T/C is beneath 30%.
class 1

Regarding CC(=O)OC12COC1CC(O)C1(C)C(=O)C(O)C3=C(C)C(OC(=O)C(O)C(NC(=O)OC(C)(C)C)c4ccccc4)CC(O)(C(OC(=O)c4ccccc4)C21)C3(C)C (centres undefined) + CNCc1ccccc1-c1csc(C(C)Nc2nc(C)nc3cc(OC)c(OC)cc23)c1 , kindly confirm whether its viability, T/C is beneath 30%.
class 1

Regarding COC(=O)c1ccc2c(C(=Nc3ccc(N(C)C(=O)CN4CCN(C)CC4)cc3)c3ccccc3)c(O)[nH]c2c1 + C=CC(=O)N1CCN(c2nc(=O)n(-c3c(C)ccnc3C(C)C)c3nc(-c4c(O)cccc4F)c(F)cc23)C(C)C1 , kindly confirm whether its viability, T/C is beneath 30%.
class 0

Regarding CC1COCCN1c1cc(-c2ccnn2C)c2ccnc(-c3ccn[nH]3)c2n1 (centres undefined) + CNCc1ccccc1-c1csc(C(C)Nc2nc(C)nc3cc(OC)c(OC)cc23)c1 , kindly confirm whether its viability, T/C is beneath 30%.
class 1

Regarding COC(=O)c1ccc2c(C(=Nc3ccc(N(C)C(=O)CN4CCN(C)CC4)cc3)c3ccccc3)c(O)[nH]c2c1 + CNCc1ccccc1-c1csc(C(C)Nc2nc(C)nc3cc(OC)c(OC)cc23)c1 , kindly confirm whether its viability, T/C is beneath 30%.
class 0

Further cases:
Regarding CCN1CCN(Cc2ccc(Nc3ncc(F)c(-c4cc(F)c5nc(C)n(C(C)C)c5c4)n3)nc2)CC1 + CNCc1ccccc1-c1csc(C(C)Nc2nc(C)nc3cc(OC)c(OC)cc23)c1 , kindly confirm whether its viability, T/C is beneath 30%.
class 0

Regarding COC(=O)c1ccc2c(C(=Nc3ccc(N(C)C(=O)CN4CCN(C)CC4)cc3)c3ccccc3)c(O)[nH]c2c1 + C=CC(=O)N1CCN(c2nc(OCC3CCCN3C)nc3c2CCN(c2cccc4cccc(C)c24)C3)CC1CC#N , kindly confirm whether its viability, T/C is beneath 30%.
class 1

Regarding O=C(c1cc(Cc2n[nH]c(=O)c3ccccc23)ccc1F)N1CCN(C(=O)C2CC2)CC1 + C=CC(=O)N1CCN(c2nc(=O)n(-c3c(C)ccnc3C(C)C)c3nc(-c4c(O)cccc4F)c(F)cc23)C(C)C1 , kindly confirm whether its viability, T/C is beneath 30%.
class 0

Regarding COc1cc(Nc2ncc3c(n2)-c2ccc(Cl)cc2C(c2c(F)cccc2OC)=NC3)ccc1C(=O)O + COc1cc2nc(C)nc(NC(C)c3cc(N)cc(C(F)(F)F)c3)c2cc1OC1CCOC1 , kindly confirm whether its viability, T/C is beneath 30%.
class 0

====

Tested on: HOP-62 multicell spheroids with HUVEC/MSC, viability
Assay: Anticancer human tumor HOP-62 cell line growth inhibition [KRAS2];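 also: viability read after a week of compound exposure; 100% = DMSO vehicle-treated spheroids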
Details: second compound 0.1 µM; first compound 0.1 µM; active compounds read low
Source text: Multicellular complex tumor spheroid response to RAS pathway inhibitors in combination with a targeted agents in patient-derived cell lines with oncogenic KRAS variants from multiple cancer types A high-throughput screen of multi-cell type tumor spheroids was designed to identify active combinations of targeted small molecules and KRAS pathway inhibitors. […] Compounds. […] If the clinical Cmax for an agent had not been determined, the highest concentration tested was 10 microM. […]
Listing: viability, T/C of selected molecules
Supply the numeric figure in %, leaving out any unit text.

Past entries and their recorded results:
Entry CC(=O)OC12COC1CC(O)C1(C)C(=O)C(O)C3=C(C)C(OC(=O)C(O)C(NC(=O)OC(C)(C)C)c4ccccc4)CC(O)(C(OC(=O)c4ccccc4)C21)C3(C)C (stereo not given) + COc1cc2nc(C)nc(NC(C)c3cc(N)cc(C(F)(F)F)c3)c2cc1OC1CCOC1 , viability, T/C reported as 36.2

Entry CCN1CCN(Cc2ccc(Nc3ncc(F)c(-c4cc(F)c5nc(C)n(C(C)C)c5c4)n3)nc2)CC1 + C=CC(=O)N1CCN(c2nc(OCC3CCCN3C)nc3c2CCN(c2cccc4cccc(C)c24)C3)CC1CC#N , viability, T/C reported as 43.8

Entry CCNC(=O)CC1N=C(c2ccc(Cl)cc2)c2cc(OC)ccc2-n2c(C)nnc21 (stereo not given) + C=CC(=O)N1CCN(c2nc(OCC3CCCN3C)nc3c2CCN(c2cccc4cccc(C)c24)C3)CC1CC#N , viability, T/C reported as 43.6

Further cases:
Entry CC(C)n1nc(-c2ccc3oc(N)nc3c2)c2c(N)ncnc21 + COc1cc2nc(C)nc(NC(C)c3cc(N)cc(C(F)(F)F)c3)c2cc1OC1CCOC1 , viability, T/C reported as 15.5

Entry CC1(C)CCC(CN2CCN(c3ccc(C(=O)NS(=O)(=O)c4ccc(NCC5CCOCC5)c([N+](=O)[O-])c4)c(Oc4cnc5[nH]ccc5c4)c3)CC2)=C(c2ccc(Cl)cc2)C1 + CC1OCC2(CCN(c3cnc(Sc4ccnc(N)c4Cl)c(N)n3)CC2)C1N , viability, T/C reported as 73

====

Listing: viability, T/C of selected molecules
System: HOP-62 multicell spheroids with HUVEC/MSC, viability
Experiment: Anticancer human tumor HOP-62 cell line growth inhibition [KRAS2];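 also: viability read after a week of compound exposure; 100% = DMSO vehicle-treated spheroids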
Conditions: second compound 0.316 µM; first compound 0.316 µM; active compounds read low
Supply the numeric figure in %, leaving out any unit text.

Past entries and their recorded results:
Entry O=C(c1cc(Cc2n[nH]c(=O)c3ccccc23)ccc1F)N1CCN(C(=O)C2CC2)CC1 + C=CC(=O)N1CCN(c2nc(OCC3CCCN3C)nc3c2CCN(c2cccc4cccc(C)c24)C3)CC1CC#N , viability, T/C reported as 35.2

Entry COc1cc2nccc(Oc3ccc(NC(=O)C4(C(=O)Nc5ccc(F)cc5)CC4)cc3)c2cc1OC + C=CC(=O)N1CCN(c2nc(=O)n(-c3c(C)ccnc3C(C)C)c3nc(-c4c(O)cccc4F)c(F)cc23)C(C)C1 , viability, T/C reported as 57.3

Entry CCN1CCN(Cc2ccc(Nc3ncc(F)c(-c4cc(F)c5nc(C)n(C(C)C)c5c4)n3)nc2)CC1 + COc1cc2nc(C)nc(NC(C)c3cc(N)cc(C(F)(F)F)c3)c2cc1OC1CCOC1 , viability, T/C reported as 63.2

Further cases:
Entry Cn1nccc1Nc1nccc(-c2cc3c(s2)C(C)(C)N(CCN2CCOCC2)C3=O)n1 + COc1cc2nc(C)nc(NC(C)c3cc(N)cc(C(F)(F)F)c3)c2cc1OC1CCOC1 , viability, T/C reported as 77.9

Entry O=C(c1cc(Cc2n[nH]c(=O)c3ccccc23)ccc1F)N1CCN(C(=O)C2CC2)CC1 + COc1cc2nc(C)nc(NC(C)c3cc(N)cc(C(F)(F)F)c3)c2cc1OC1CCOC1 , viability, T/C reported as 83.3

====

Test system: HOP-62 multicell spheroids with HUVEC/MSC, viability
Test: Anticancer human tumor HOP-62 cell line growth inhibition [KRAS2];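 also: viability read after a week of compound exposure; 100% = DMSO vehicle-treated spheroids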
Details: second compound 0.316 µM; first compound 0.01 µM; active compounds read low
// boundary case: viability, T/C equal to 40% maps to not met; strictly smaller maps to met

Regarding CC(C)n1nc(-c2ccc3oc(N)nc3c2)c2c(N)ncnc21 + C=CC(=O)N1CCN(c2nc(=O)n(-c3c(C)ccnc3C(C)C)c3nc(-c4c(O)cccc4F)c(F)cc23)C(C)C1 , kindly confirm whether its viability, T/C is beneath 40%.
met

// switching to the query molecule
Regarding CC(=O)Nc1cccc(-n2c(=O)n(C3CC3)c(=O)c3c(Nc4ccc(I)cc4F)n(C)c(=O)c(C)c32)c1 + CNCc1ccccc1-c1csc(C(C)Nc2nc(C)nc3cc(OC)c(OC)cc23)c1 , kindly confirm whether its viability, T/C is beneath 40%.
met

====

System: HOP-62 multicell spheroids with HUVEC/MSC, viability
Assay: Anticancer human tumor HOP-62 cell line growth inhibition [KRAS2];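 also: viability read after a week of compound exposure; 100% = DMSO vehicle-treated spheroids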
Settings: second compound 0.316 µM; first compound 0.00316 µM; active compounds read low
Readout type: viability, T/C

Past entries and their recorded results:
Entry CC(=O)Nc1cccc(-n2c(=O)n(C3CC3)c(=O)c3c(Nc4ccc(I)cc4F)n(C)c(=O)c(C)c32)c1 + CNCc1ccccc1-c1csc(C(C)Nc2nc(C)nc3cc(OC)c(OC)cc23)c1 , viability, T/C reported as 48%

Entry CN(C)C/C=C/C(=O)Nc1cc2c(Nc3ccc(F)c(Cl)c3)ncnc2cc1O[C@H]1CCOC1 + C=CC(=O)N1CCN(c2nc(=O)n(-c3c(C)ccnc3C(C)C)c3nc(-c4c(O)cccc4F)c(F)cc23)C(C)C1 , viability, T/C reported as 66%

Entry CN(C)C/C=C/C(=O)Nc1cc2c(Nc3ccc(F)c(Cl)c3)ncnc2cc1O[C@H]1CCOC1 + COc1cc2nc(C)nc(NC(C)c3cc(N)cc(C(F)(F)F)c3)c2cc1OC1CCOC1 , viability, T/C reported as 112%

Entry CC(=O)Nc1cccc(-n2c(=O)n(C3CC3)c(=O)c3c(Nc4ccc(I)cc4F)n(C)c(=O)c(C)c32)c1 + C=CC(=O)N1CCN(c2nc(=O)n(-c3c(C)ccnc3C(C)C)c3nc(-c4c(O)cccc4F)c(F)cc23)C(C)C1 , viability, T/C reported as 30.2%

Entry CCN1CCN(Cc2ccc(Nc3ncc(F)c(-c4cc(F)c5nc(C)n(C(C)C)c5c4)n3)nc2)CC1 + C=CC(=O)N1CCN(c2nc(OCC3CCCN3C)nc3c2CCN(c2cccc4cccc(C)c24)C3)CC1CC#N , viability, T/C reported as 57.3%

Entry CC(C)n1nc(-c2ccc3oc(N)nc3c2)c2c(N)ncnc21 + CC1OCC2(CCN(c3cnc(Sc4ccnc(N)c4Cl)c(N)n3)CC2)C1N , viability, T/C reported as 21.3%

Entry Cn1ncnc1[C@H]1c2n[nH]c(=O)c3cc(F)cc(c23)N[C@@H]1c1ccc(F)cc1 + C=CC(=O)N1CCN(c2nc(OCC3CCCN3C)nc3c2CCN(c2cccc4cccc(C)c24)C3)CC1CC#N , viability, T/C reported as 40.6%

Entry CC(C)n1nc(-c2ccc3oc(N)nc3c2)c2c(N)ncnc21 + C=CC(=O)N1CCN(c2nc(=O)n(-c3c(C)ccnc3C(C)C)c3nc(-c4c(O)cccc4F)c(F)cc23)C(C)C1 , viability, T/C reported as 25.3%

Further cases:
Entry CCN1CCN(Cc2ccc(Nc3ncc(F)c(-c4cc(F)c5nc(C)n(C(C)C)c5c4)n3)nc2)CC1 + COc1cc2nc(C)nc(NC(C)c3cc(N)cc(C(F)(F)F)c3)c2cc1OC1CCOC1 , viability, T/C reported as 101%

Entry CCN1CCN(Cc2ccc(Nc3ncc(F)c(-c4cc(F)c5nc(C)n(C(C)C)c5c4)n3)nc2)CC1 + C=CC(=O)N1CCN(c2nc(=O)n(-c3c(C)ccnc3C(C)C)c3nc(-c4c(O)cccc4F)c(F)cc23)C(C)C1 , viability, T/C reported as 72.5%
